Source listed as PubChem BioAssay (NCATS).

experiment.notes: qHTS of pediatric cancer cell lines to identify multiple opportunities for drug repurposing: Primary screen for SK-N-MC cells (AID 1347093)
assay.context: SK-N-MC viability, CellTiter-Glo luminescence, 48 h; series mostly up to 46 µM
Results filed as inconclusive are left out. The source made the active and inactive calls. Calls come from the whole dose curve; as a rule, active = well fitted cell-killing curve with a large enough effect; inconclusive = small, poorly fitted or top-dose-only effect; inactive = no such curve, though single readings can be large or run the other way.
Reply using exactly one outcome from active, inactive

Solved entries:
{"columns": ["molecule", "assigned.category"],
 "data": [
  ["NC(=O)n1c(O)c(C(=O)c2cccs2)c2cc(Cl)ccc21", "active"],
  ["CC1=C(C(=O)O)N2C(=O)[C@@H](NC(=O)[C@H](N)c3ccccc3)[C@H]2SC1", "inactive"],
  ["CC[C@]12CCCN3CCc4c(n(c5ccccc45)C(=O)C1)[C@@H]32", "active"],
  ["C[C@@]12C(=O)OC(=O)[C@]1(C)C1CCC2O1", "active"],
  ["CCC(Cc1c(I)cc(I)c(N)c1I)C(=O)O (stereo not drawn)", "inactive"]
]}

API: the following record is the query input.
Challenge: Could you kindly confirm the outcome this assay logged for COC(=O)C(c1ccccc1Cl)N1CCc2sccc2C1 (stereo not drawn) ?
Response given: inactive

----------
experiment.notes: Primary qHTS for inhibitors of nuclear receptor binding SET domain protein 2 (NSD2) in an isogenic RCH-ACV NSD2 p.E1099K mutant (9B) (AID 1645876); note: nearly all actives have a fitted effect of over 70% in size
assay.context: RCH-ACV NSD2 E1099K (9B) viability, CellTiter-Glo, 72 h; series mostly up to 44.9 µM
Records with an inconclusive call do not appear. Activity calls are given as the source filed them. Calls come from the whole dose curve; as a rule, active = well fitted inhibition curve with a large enough effect; inconclusive = small, poorly fitted or top-dose-only effect; inactive = flat fitted curve, though single readings scatter.
Reply using exactly one outcome from Yes (active), No (inactive)

{"columns": ["compound", "assigned.category"],
 "data": [
  ["Cc1c[nH]c2ccccc12", "No"],
  ["O=C(O)CCNC(=O)c1ccccc1", "No"],
  ["CCCCCCCC/C=C\\CCCCCCCCN", "No"],
  ["O=C(O)c1ccc(S(=O)(=O)N(Cl)Cl)cc1", "No"],
  ["COP(=O)(OC)OC(c1ccc(Cl)cc1)P(=O)(OC)OC (centres undefined)", "No"]
]}

Challenge: Could you kindly confirm the outcome this assay logged for CC[N+](C)(CC)CCOC(=O)C(O)(c1ccccc1)C1CCCCC1 (centres undefined) ?
Response given: No

Challenge: Could you kindly confirm the outcome this assay logged for C[C@H]1O[C@@H](O[C@H]2CC[C@@]3(C)[C@H](CC[C@@H]4[C@@H]3C[C@@H](O)[C@]3(C)[C@@H](C5=CC(=O)OC5)CC[C@]43O)C2)C[C@H](O)[C@@H]1O[C@H]1C[C@H](O)[C@H](O[C@H]2C[C@H](O)[C@H](O[C@@H]3O[C@H](CO)[C@@H](O)[C@H](O)[C@H]3O)[C@@H](C)O2)[C@@H](C)O1 ?
Response given: Yes

Challenge: Could you kindly confirm the outcome this assay logged for NS(=O)(=O)c1cc(C(=O)O)cc(N2CCCC2)c1Oc1ccccc1 ?
Response given: No

Challenge: Could you kindly confirm the outcome this assay logged for CC(C)NCC(O)c1ccc2ccccc2c1 (centres undefined) ?
Response given: No

----------
System: FAB9
experiment.notes: qHTS profiling for inhibitors of Plasmodium falciparum proliferation (AID 504749); note: nearly all actives have a fitted effect of over 60% in size
assay.context: P. falciparum in erythrocytes, SYBR Green DNA, 72 h; series mostly up to 28.7 µM
Experimental: NIH National Institute of Allergy and Infectious Diseases [NIAID] NIH Chemical Genomics Center [NCGC] […] Because mature erythrocytes lack DNA, only Plasmodium-derived DNA is detected. NCGC Assay Protocol Summary: The SYBR Green viability assay was adapted from a method described previously (Plouffe et al., 2008). […] The following morning, fluorescence intensity at 485(14) nm excitation and 535(25) nm emission wavelengths was measured on an EnVision (Perkin Elmer) plate reader. […]
Inconclusive results are not listed. Activity calls are given as the source filed them. Calls come from the whole dose curve; as a rule, active = well fitted inhibition curve with a large enough effect; inconclusive = small, poorly fitted or top-dose-only effect; inactive = flat fitted curve, though single readings scatter.
Reply using exactly one outcome from active, inactive

Solved entries:
{"columns": ["compound", "assigned.category"],
 "data": [
  ["Nc1ccc(S(=O)(=O)Nc2cnc3ccccc3n2)cc1", "inactive"],
  ["OC1C(O)C(O)C(O)C(O)C1O (configuration not stated)", "inactive"],
  ["COc1cc(N)c(Cl)cc1C(=O)NC1CCN(Cc2ccccc2)CC1", "inactive"],
  ["CC(=O)N[C@@H](CCC(=O)O)C(=O)O", "inactive"],
  ["CCCc1ncc(C[n+]2ccccc2C)c(N)n1", "inactive"],
  ["CC(=O)Oc1ccc(C)cc1", "inactive"],
  ["O=C(NC1CCN(CCc2c[nH]c3ccccc23)CC1)c1ccccc1", "inactive"],
  ["CCOC(=O)c1ccc(N)cc1", "inactive"],
  ["CCCCCCCC/C=C\\CCCCCCCCN", "inactive"],
  ["Cn1c(=O)c2[nH]c(Br)nc2n(C)c1=O", "inactive"]
]}

API: the following record is the query input.
Challenge: Could you kindly confirm the outcome this assay logged for CN(C)CCN1C(=O)c2ccccc2N(C)c2ccccc21 ?
Response given: inactive

----------
experiment.notes: Primary qHTS for inhibitors of nuclear receptor binding SET domain protein 2 (NSD2) in an RCH-ACV wild type WT cells (2C) (AID 1645877); note: nearly all actives have a fitted effect of over 70% in size
assay.context: RCH-ACV (leukaemia line) NSD2 WT (2C) viability, CellTiter-Glo, 72 h; series mostly up to 44.9 µM
Records with an inconclusive call do not appear. Active and inactive are the calls of the source. Calls follow the shape of the dose curve; as a rule, active = well fitted inhibition curve with a large enough effect; inconclusive = small, poorly fitted or top-dose-only effect; inactive = no such curve, though single readings can be large or run the other way.
Reply using exactly one outcome from active, inactive

{"columns": ["compound", "assigned.category"],
 "data": [
  ["Cc1ccc2c(Br)cc(Br)c(O)c2n1", "active"],
  ["CCCCCN=C(N)N/N=C/c1c[nH]c2ccc(OC)cc12", "active"],
  ["Nc1ccc(S(=O)(=O)NCc2ccccc2)cc1", "inactive"],
  ["Cc1c[nH]c2ccccc12", "inactive"],
  ["C#C[C@]1(O)CC[C@H]2[C@@H]3[C@H](C)CC4=C(CCC(=O)C4)[C@H]3CC[C@@]21C", "active"],
  ["CCN(CC)CCNc1ccc(CO)c2sc3ccccc3c(=O)c12", "active"],
  ["Cc1cc2c(OCC(CNC(C)(C)C)OC(=O)c3ccccc3)cccc2[nH]1 (configuration not stated)", "inactive"],
  ["Cc1cccc(C)c1NC(=O)CN1CCCC1", "inactive"],
  ["Cc1ccc(S(=O)(=O)NC(=O)NC2CCCC2)cc1", "inactive"],
  ["Cc1ccc(-c2ncc(Cl)cc2-c2ccc(S(C)(=O)=O)cc2)cn1", "inactive"]
]}

Challenge: Could you kindly confirm the outcome this assay logged for O=C(NCCc1c[nH]c2ccccc12)c1cccnc1 ?
Response given: inactive

Challenge: Could you kindly confirm the outcome this assay logged for CN(Cc1ccc(C(C)(C)C)cc1)Cc1cccc2ccccc12 ?
Response given: inactive

----------
System: CP256
experiment.notes: qHTS profiling for inhibitors of Plasmodium falciparum proliferation (AID 504749); note: nearly all actives have a fitted effect of over 60% in size
assay.context: P. falciparum in erythrocytes, SYBR Green DNA, 72 h; series mostly up to 28.7 µM
Description: NIH National Institute of Allergy and Infectious Diseases [NIAID] NIH Chemical Genomics Center [NCGC] […] Because mature erythrocytes lack DNA, only Plasmodium-derived DNA is detected. NCGC Assay Protocol Summary: The SYBR Green viability assay was adapted from a method described previously (Plouffe et al., 2008). […] The following morning, fluorescence intensity at 485(14) nm excitation and 535(25) nm emission wavelengths was measured on an EnVision (Perkin Elmer) plate reader. […]
Records with an inconclusive call do not appear. Active and inactive are the calls of the source. Calls follow the shape of the dose curve; as a rule, active = well fitted inhibition curve with a large enough effect; inconclusive = small, poorly fitted or top-dose-only effect; inactive = flat fitted curve, though single readings scatter.
Reply using exactly one outcome from 1 (active), -1 (inactive)

Solved entries:
{"columns": ["compound", "assigned.category"],
 "data": [
  ["COc1ccc2c(c1)c1c3n2CCN(C)C3=NCC1", -1],
  ["O=C(NCCc1c[nH]c2ccccc12)c1cccnc1", -1],
  ["C=C[C@@]1(C)CC(=O)[C@]2(O)[C@@]3(C)[C@@H](O)CCC(C)(C)[C@@H]3[C@H](O)[C@H](OC(C)=O)[C@@]2(C)O1", -1],
  ["N=C(N)N1CCc2ccccc2C1", -1]
]}

Challenge: Could you kindly confirm the outcome this assay logged for Cc1ccccc1OCC(O)CO (stereo unspecified) ?
Response given: -1

Challenge: Could you kindly confirm the outcome this assay logged for CCC1Nc2cc(Cl)c(S(N)(=O)=O)cc2S(=O)(=O)N1 (stereo unspecified) ?
Response given: -1

Challenge: Could you kindly confirm the outcome this assay logged for CCc1oc2ccccc2c1C(=O)c1cc(Br)c(O)c(Br)c1 ?
Response given: -1

Challenge: Could you kindly confirm the outcome this assay logged for Cn1c(=O)c2[nH]c(Br)nc2n(C)c1=O ?
Response given: -1

----------
Tested on: CP329
experiment.notes: qHTS profiling for inhibitors of Plasmodium falciparum proliferation (AID 504749); note: nearly all actives have a fitted effect of over 60% in size
assay.context: P. falciparum in erythrocytes, SYBR Green DNA, 72 h; series mostly up to 28.7 µM
Results filed as inconclusive are left out. Calls of active or inactive are those of the source. The call rests on the fitted dose curve; in most records, active means well fitted inhibition curve with a large enough effect; inconclusive means small, poorly fitted or top-dose-only effect; inactive means flat fitted curve, though single readings scatter.
Reply using exactly one outcome from active, inactive

Solved entries:
{"columns": ["molecule", "target.under.test", "assigned.category"],
 "data": [
  ["COP(=O)(OC)OC(c1ccc(Cl)cc1)P(=O)(OC)OC (centres undefined)", "CP329", "inactive"],
  ["CC(C)CCCC(C)N (centres undefined)", "CP329", "inactive"],
  ["CCCCCCCCCCCCSCCOCCO", "CP329", "inactive"]
]}

Challenge: Could you kindly confirm the outcome this assay logged for CCC(C(=O)OCCOCCN(CC)CC)c1ccccc1 (centres undefined) ?
Response given: inactive

Challenge: Could you kindly confirm the outcome this assay logged for CCCCCCCCNC(C)C(O)c1ccc(SC(C)C)cc1 (centres undefined) ?
Response given: active

Challenge: Could you kindly confirm the outcome this assay logged for Nc1ccc(S(=O)(=O)NCc2ccccc2)cc1 ?
Response given: inactive

Challenge: Could you kindly confirm the outcome this assay logged for CO[C@]12C[C@@H](COC(=O)c3cncc(Br)c3)CN(C)[C@@H]1Cc1cn(C)c3cccc2c13 ?
Response given: inactive
